The origin of these recorded values is ChEMBL document CHEMBL1149569.

STUDY_SYSTEM: Membrane-bound transcription factor site-1 protease (Homo sapiens, UniProt Q14703)
Sequence (Q14703 whole entry): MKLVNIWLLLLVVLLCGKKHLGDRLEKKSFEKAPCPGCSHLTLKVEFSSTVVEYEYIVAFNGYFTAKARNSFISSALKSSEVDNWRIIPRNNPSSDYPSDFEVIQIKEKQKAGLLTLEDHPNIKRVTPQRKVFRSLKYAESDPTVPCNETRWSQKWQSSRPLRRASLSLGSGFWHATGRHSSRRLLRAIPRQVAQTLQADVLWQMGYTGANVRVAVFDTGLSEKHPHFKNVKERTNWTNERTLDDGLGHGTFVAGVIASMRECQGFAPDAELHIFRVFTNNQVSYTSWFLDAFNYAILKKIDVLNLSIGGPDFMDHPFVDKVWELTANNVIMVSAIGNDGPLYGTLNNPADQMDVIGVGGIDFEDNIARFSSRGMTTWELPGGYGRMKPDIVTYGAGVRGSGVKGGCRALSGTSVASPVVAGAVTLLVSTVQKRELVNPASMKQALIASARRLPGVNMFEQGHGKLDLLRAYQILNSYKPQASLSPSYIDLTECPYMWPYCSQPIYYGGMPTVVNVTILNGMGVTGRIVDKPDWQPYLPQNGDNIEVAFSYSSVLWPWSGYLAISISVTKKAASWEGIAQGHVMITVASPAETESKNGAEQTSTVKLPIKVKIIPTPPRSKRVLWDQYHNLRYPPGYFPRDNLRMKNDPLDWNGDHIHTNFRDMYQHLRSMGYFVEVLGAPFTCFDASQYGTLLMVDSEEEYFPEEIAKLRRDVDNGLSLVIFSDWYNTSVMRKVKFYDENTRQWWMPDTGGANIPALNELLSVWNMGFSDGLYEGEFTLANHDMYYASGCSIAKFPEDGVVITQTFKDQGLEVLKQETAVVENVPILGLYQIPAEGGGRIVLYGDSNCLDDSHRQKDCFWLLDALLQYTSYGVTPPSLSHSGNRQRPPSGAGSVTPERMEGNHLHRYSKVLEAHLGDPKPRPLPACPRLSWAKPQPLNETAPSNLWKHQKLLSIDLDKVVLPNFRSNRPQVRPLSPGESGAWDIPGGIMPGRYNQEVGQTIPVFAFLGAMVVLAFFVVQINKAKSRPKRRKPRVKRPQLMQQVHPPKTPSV
MEASUREMENT_PROTOCOL: Inhibition of human S1P expressed in CHOK1 cells
MEASURED_PROPERTY: IC50 (nM)

| MOLECULE | STUDY_SYSTEM | UNIT_OF_MEASURE | IC50 |
| --- | --- | --- | --- |
| CCN(CC)Cc1ccc(C(=O)N(CCc2ccccc2Cl)C2CCNC2)cc1 (stereo not drawn) | Membrane-bound transcription factor site-1 protease (Homo sapiens, UniProt Q14703) | nM | 840 |

A = COC[C@@H]1CCCN1Cc1ccc(C(=O)N(CCc2ccccc2OC)C2CCNC2)cc1 (stereo partly drawn)
B = O=C(c1ccc(OCc2ccccc2)cc1)N(CCc1ccccc1Cl)C1CCNC1 (stereo not drawn)
# argmax over IC50 for candidates A and B Reply with the label of the item you choose.
B

* * *

STUDY_SYSTEM: Membrane-bound transcription factor site-1 protease (Homo sapiens)
MEASUREMENT_PROTOCOL: Inhibition of human S1P expressed in CHOK1 cells
pIC50: −log10 of the molar value.
MEASURED_PROPERTY: pIC50

# annotated cases, reported pIC50 shown
| COMPOUND | MEASURED_PROPERTY | EXPERIMENTAL_VALUE |
| --- | --- | --- |
| CC(C)Oc1ccc(C(=O)N(CCc2ccccc2Cl)C2CCNC2)cc1 (stereo unspecified) | pIC50 | 5.85 |
| CCN(CC)Cc1ccc(C(=O)N(CCc2c(Cl)cccc2Cl)C2CCNC2)cc1 (stereo unspecified) | pIC50 | 6.37 |
| CCN(CC)Cc1ccc(C(=O)N(CCc2ccccc2OC)C2CCNC2)cc1 (stereo unspecified) | pIC50 | 6.27 |
| CCN(CC)Cc1ccc(C(=O)N(CCc2ccccc2OC)[C@H]2CCNC2)cc1 | pIC50 | 6.01 |

1 = COc1ccccc1CCN(C(=O)c1ccc(CN2CC3CCCC2C3)cc1)C1CCNC1 (stereo unspecified)
2 = Cc1ccccc1C1CCCN(Cc2ccc(C(=O)N(CCc3ccccc3Cl)C3CCNC3)cc2)C1 (stereo unspecified)
Given the listed records, identify the one among 1 and 2 with higher pIC50. To answer, give the label that identifies your chosen option.
2
(2: 8.10, 1: 7.54)

1 = CC(C)Oc1ccc(C(=O)N(CCc2ccccc2F)C2CCNC2)cc1 (stereo unspecified)
2 = COc1ccccc1CCN(C(=O)c1ccc(CN2CCCC(C(N)=O)C2)cc1)C1CCNC1 (stereo unspecified)
Among 1 and 2 , whose measured pIC50 is the smaller figure? The response must carry the label of the picked entry.
1

* * *

Test system: Liver
MEASUREMENT_PROTOCOL: Reduction of fatty acid synthase expression in mouse liver
Format: functional, tissue-based
MEASURED_PROPERTY: EC50 (µM)
Write the value in µM as a bare number.

Using the record for CCN(CC)Cc1ccc(C(=O)N(CCc2ccccc2OC)[C@@H]2CCNC2)cc1 , report its EC50.
2

* * *

MEASUREMENT_PROTOCOL: Plasma clearance in rat
Type: ADME, organism-based
MEASURED_PROPERTY: clearance (mL/min/kg)
Write the answer as a number in mL/min/kg, unit excluded.

Fill blank: measured clearance of the compound CCN(CC)Cc1ccc(C(=O)N(CCc2ccccc2OC)[C@@H]2CCNC2)cc1 is ____.
75

* * *

STUDY_SYSTEM: Membrane-bound transcription factor site-1 protease (Homo sapiens)
Sequence (Q14703 whole entry): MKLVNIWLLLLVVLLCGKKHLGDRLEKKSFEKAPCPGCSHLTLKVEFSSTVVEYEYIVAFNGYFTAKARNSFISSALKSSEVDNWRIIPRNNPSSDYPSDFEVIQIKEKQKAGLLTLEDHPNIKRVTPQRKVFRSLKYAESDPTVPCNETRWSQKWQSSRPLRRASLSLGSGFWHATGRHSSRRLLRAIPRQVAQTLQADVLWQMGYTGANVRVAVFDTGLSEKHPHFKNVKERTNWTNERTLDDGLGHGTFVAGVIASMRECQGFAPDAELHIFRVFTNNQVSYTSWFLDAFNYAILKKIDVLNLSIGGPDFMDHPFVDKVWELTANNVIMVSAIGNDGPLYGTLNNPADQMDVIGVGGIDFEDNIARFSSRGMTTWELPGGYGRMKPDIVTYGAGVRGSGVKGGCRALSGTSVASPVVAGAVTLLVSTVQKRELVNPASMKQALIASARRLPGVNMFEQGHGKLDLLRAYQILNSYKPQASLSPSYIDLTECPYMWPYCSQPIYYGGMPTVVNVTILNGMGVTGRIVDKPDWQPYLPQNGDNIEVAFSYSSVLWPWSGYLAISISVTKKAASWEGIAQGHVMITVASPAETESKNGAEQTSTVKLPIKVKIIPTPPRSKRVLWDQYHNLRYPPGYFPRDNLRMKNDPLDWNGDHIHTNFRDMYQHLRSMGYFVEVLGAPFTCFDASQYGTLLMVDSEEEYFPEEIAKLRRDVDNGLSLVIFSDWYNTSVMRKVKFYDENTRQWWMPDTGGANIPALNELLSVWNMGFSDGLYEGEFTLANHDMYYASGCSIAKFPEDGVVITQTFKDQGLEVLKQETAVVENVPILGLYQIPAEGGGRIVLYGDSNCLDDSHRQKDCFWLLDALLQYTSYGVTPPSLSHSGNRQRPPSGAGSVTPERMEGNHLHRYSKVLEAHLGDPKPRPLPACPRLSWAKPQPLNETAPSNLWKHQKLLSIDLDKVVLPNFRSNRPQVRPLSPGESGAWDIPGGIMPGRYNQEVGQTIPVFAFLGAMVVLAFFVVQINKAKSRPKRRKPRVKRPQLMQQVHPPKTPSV
MEASUREMENT_PROTOCOL: Inhibition of human S1P expressed in CHOK1 cells
MEASURED_PROPERTY: IC50 (µM)

| COMPOUND | IC50 [µM] |
| --- | --- |
| COc1ccccc1CCN(C(=O)c1ccc(CN2CC3CCC2C3)cc1)C1CCNC1 (stereo not given) | 0.095 |

I = CC(C)Oc1ccc(C(=O)N(CCc2cccc(Cl)c2)C2CCNC2)cc1 (stereo not given)
II = CCN(CC)Cc1ccc(C(=O)N(CCc2ccc(Cl)cc2)C2CCNC2)cc1 (stereo not given)
Which one would you say has the larger IC50 value: I , or II ? Output the label that corresponds to your choice.
I

* * *

STUDY_SYSTEM: Membrane-bound transcription factor site-1 protease (Homo sapiens, UniProt Q14703)
MEASUREMENT_PROTOCOL: Inhibition of human S1P expressed in CHOK1 cells
pIC50: −log10 of the molar value.
MEASURED_PROPERTY: pIC50

Solved entries (count: 4):
| MOLECULE | pIC50 |
| --- | --- |
| CCN(CC)Cc1ccc(C(=O)N(CCc2ccccc2OC)[C@@H]2CCNC2)cc1 | 6.77 |
| COc1ccccc1CCN(C(=O)c1ccc(CN2CCCCC2)cc1)C1CCNC1 (stereo not drawn) | 6.60 |
| CCN(CC)Cc1ccc(C(=O)N(CCc2ccccc2C)C2CCNC2)cc1 (stereo not drawn) | 5.80 |
| COc1ccccc1CCN(C(=O)c1ccc(OCc2ccccc2)cc1)C1CCNC1 (stereo not drawn) | 6.51 |

P = O=C(c1ccc(OCc2ccccc2)cc1)N(CCc1cccc(Cl)c1)C1CCNC1 (stereo not drawn)
Q = COc1ccccc1CCN(C(=O)c1ccc(CN2CCCC(c3ccccc3C)C2)cc1)C1CCNC1 (stereo not drawn)
R = COc1ccccc1CCN(C(=O)c1ccc(CN[C@H]2CCCC[C@@H]2O)cc1)C1CCNC1 (stereo partly drawn)
S = CCOc1ccccc1CCN(C(=O)c1ccc(CN(CC)CC)cc1)C1CCNC1 (stereo not drawn)
Ascending by pIC50, please: list the molecules accordingly. Answer format: the labels, in the requested order.
S, P, R, Q
(S: 4.80, P: 6.29, R: 7.00, Q: 7.43)
